# test-system: Type-2 angiotensin II receptor (Sus scrofa)
# assay-comment: Binding affinity for angiotensin II receptor, type 2 in pig uterus myometrium using [125I]-Ang II as radioligand, in pH 7.4 Tris-HCl buffer for 1.5 hr at 25 degree C
Starred links: 1 amine or outer side, 2 acyl side, 3 side chain; linkers in the order of their positions; H or OH if unused. Non-standard residues stand in square brackets, D forms with d. Residues, ends and D or L forms follow the SMILES beside them. X2 = O=C(c1cc(CN[*:1])cc(Cc2ccc(O)cc2)c1)[*:2]; X1 = O=C(c1cc(Cc2ccc(O)cc2)cc(N[*:1])c1)[*:2]
metric-name: Ki (nM)

>>> recorded_number("N=C(N)NCCC[C@H](NC(=O)[C@@H](N)CC(=O)O)C(=O)Nc1cc(Cc2ccc(O)cc2)cc(C(=O)N[C@@H](Cc2cnc[nH]2)C(=O)N2CCC[C@H]2C(=O)N[C@@H](Cc2ccccc2)C(=O)O)c1 (H-DR[X1]HPF-OH)")
41.3
>>> recorded_number("N=C(N)NCCC[C@H](NC(=O)[C@@H](N)CC(=O)O)C(=O)NCc1cc(Cc2ccc(O)cc2)cc(C(=O)N[C@@H](Cc2cnc[nH]2)C(=O)N2CCC[C@H]2C(=O)N[C@@H](Cc2ccccc2)C(=O)O)c1 (H-DR[X2]HPF-OH)")
10.1
>>> recorded_number("CC(C)[C@H](NC(=O)[C@H](CCCNC(=N)N)NC(=O)[C@@H](N)CC(=O)O)C(=O)Nc1cc(Cc2ccc(O)cc2)cc(C(=O)N[C@@H](Cc2cnc[nH]2)C(=O)N2CCC[C@H]2C(=O)N[C@@H](Cc2ccccc2)C(=O)O)c1 (H-DRV[X1]HPF-OH)")
9.8
